measured target: HIV Env of isolate 191955_A11 (clade A) (HIV)
method: cell-based or functional assay
parameter measured: IC50 (µg/ml) with constrains

A selection of reference data follows.
// sample PGDM1400 (antibody, V domains shown) VH: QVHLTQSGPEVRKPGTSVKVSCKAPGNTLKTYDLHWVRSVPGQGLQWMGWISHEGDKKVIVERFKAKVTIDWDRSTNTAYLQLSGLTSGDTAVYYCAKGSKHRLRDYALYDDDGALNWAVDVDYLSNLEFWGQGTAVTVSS VL: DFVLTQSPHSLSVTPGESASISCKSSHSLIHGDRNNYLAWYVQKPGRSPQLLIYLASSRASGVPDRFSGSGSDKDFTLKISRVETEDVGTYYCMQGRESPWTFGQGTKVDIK , its IC50 (µg/ml) with constrains was 0.013 µg/mL

# IC50 (µg/ml) with constrains (binder: ePGDM13 (antibody, V domains shown) VH: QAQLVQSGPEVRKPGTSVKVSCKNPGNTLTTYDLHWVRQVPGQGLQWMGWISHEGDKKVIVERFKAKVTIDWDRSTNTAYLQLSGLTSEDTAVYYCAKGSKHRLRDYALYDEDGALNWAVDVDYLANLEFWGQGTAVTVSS VL: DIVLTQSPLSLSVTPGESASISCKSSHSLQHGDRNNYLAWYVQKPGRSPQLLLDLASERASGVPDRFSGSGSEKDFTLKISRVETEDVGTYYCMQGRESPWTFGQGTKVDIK ) is 0.008 µg/mL

Recorded IC50 (µg/ml) with constrains (binder ePGDM5 (antibody, V domains shown) VH: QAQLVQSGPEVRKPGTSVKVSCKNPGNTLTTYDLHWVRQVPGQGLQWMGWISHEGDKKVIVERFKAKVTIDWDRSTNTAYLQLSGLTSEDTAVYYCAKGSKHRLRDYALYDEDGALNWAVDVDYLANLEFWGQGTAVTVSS VL: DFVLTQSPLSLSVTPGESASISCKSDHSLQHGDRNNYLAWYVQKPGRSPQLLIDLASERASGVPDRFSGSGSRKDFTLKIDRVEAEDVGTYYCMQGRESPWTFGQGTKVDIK ): 0.021 µg/mL

Switching to the query record.
Entry ePGDM9 (antibody, V domains shown) VH: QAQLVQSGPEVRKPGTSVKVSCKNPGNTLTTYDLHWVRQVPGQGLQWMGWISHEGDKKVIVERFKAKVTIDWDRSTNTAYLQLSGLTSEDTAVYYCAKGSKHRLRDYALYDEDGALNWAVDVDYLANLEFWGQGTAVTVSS VL: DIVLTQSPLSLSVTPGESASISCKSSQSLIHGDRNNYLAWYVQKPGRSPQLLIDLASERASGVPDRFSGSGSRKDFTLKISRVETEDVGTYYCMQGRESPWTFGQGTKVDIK — recorded IC50 (µg/ml) with constrains = 0.007 µg/mL
